src = patent US20100009970A1

Hi there, I'd appreciate the recorded CC50 at 72 h for every entry that follows.
# method-notes: in vitro
# run-parameters: human, CC50 (uM)
Where a name gives a salt, the structure may show the parent alone.
Numbers only, in µM.

1) CN[C@H]1CC[C@@H](c2ccc(Cl)c(Cl)c2)c2ccccc21 [Sertraline HCL, Sertraline HCl, reference compound] | 11.8

Consider the additional compound presented here.
Query: What does the data say about its CC50 at 72 h? Entry: CN[C@@H]1CC[C@H](c2ccc(Cl)c(Cl)c2)c2ccccc21 [1R,4R Sertraline Enantiomer]
Result: 14.3

###

# Tested on: Huh7 cells expressing a subgenomic RNA replicon of Con1 (genotype 1b) sequence origin
# method-notes: microbe, parasite or virus in culture
# run-parameters: Hepatitis C virus, GETYPE1B, Huh-7, 72 h, read-out: Max Effect @CC30 (inhibition)
Where a name gives a salt, the structure may show the parent alone.
readout-kind: Emax

Look over these answered cases.
1) CN[C@H]1CC[C@@H](c2ccc(Cl)c(Cl)c2)c2ccccc21 [Sertraline HCL, Sertraline HCl, reference compound] | 62%
2) CNC1CCC(c2ccc(C(F)(F)F)cc2)c2ccccc21 (stereo not shown) | 0%

Batch request: Emax per item, same order as input.
1. N[C@H]1CC[C@@H](c2ccc(Cl)c(Cl)c2)c2ccccc21
2. CNC1CCC(c2ccc(Oc3ccccc3)cc2)c2ccccc21 (stereo not shown)

Result:
1: 0%; 2: 65%

###

# Tested on: Huh7 cells expressing a subgenomic RNA replicon of Con1 (genotype 1b) sequence origin
# method-notes: microbe, parasite or virus in culture
# run-parameters: Hepatitis C virus, Huh-7
readout-kind: IC50 (µM)
Give bare numbers, in µM.

Look over these answered cases.
1) CN(Cc1cc(Br)cc(Br)c1N)C1CCCCC1 [Bromhexine, reference compound] | 14.2
2) C/C=C(/C)C(=O)O[C@H]1C(C)=C2[C@H]([C@@H]1OC(=O)CCCCCCC)[C@@](C)(OC(C)=O)C[C@H](OC(=O)CCC)[C@@]1(O)[C@H]2OC(=O)[C@@]1(C)O [Thapsigargin, reference compound] | 0.0113
3) C[C@]12CC[C@H](O)CC1=CC[C@@H]1[C@@H]2CC[C@]2(C)C(=O)CC[C@@H]12 [Dehydroepiandrosterone, reference compound] | 11.2
4) CCN(CC)CCCC(C)Nc1c2ccc(Cl)cc2nc2ccc(OC)cc12 (stereo not shown) [Quinacrine, reference compound] | 4.17
5) CCCC1O[C@@H]2C[C@H]3[C@@H]4CCC5=CC(=O)C=C[C@]5(C)[C@H]4[C@@H](O)C[C@]3(C)[C@]2(C(=O)CO)O1 (stereo partly shown) [Budesonide, budesonide, reference compound] | 15.7

Batch request: IC50 per item, same order as input.
1. CSc1ccc(Oc2ccc(S(N)(=O)=O)cc2CN(C)C)cc1C [UK-416244, reference compound]
2. Nc1n[n+]([O-])c2ccccc2[n+]1[O-] [Tirapazamine, reference compound]

Result:
1: 1.41; 2: 1.83

###

# Test system: Huh7 parental cells
# run-parameters: human
readout-kind: CC50 (µM)
Answers are plain numbers, in µM.

Look over these answered cases.
1. CN(C)[C@H]1CC[C@@H](c2ccc(Cl)c(Cl)c2)c2ccc(C(=O)NC3CC3)cc21 | 18.2
2. CN[C@H]1CC[C@@H](c2ccc(Cl)c(Cl)c2)c2ccccc21 [Sertraline, sertraline, reference compound] | 7.7

Consider the additional compound presented here.
Query: // map CN(C)[C@H]1CC[C@@H](c2ccc(Cl)c(Cl)c2)c2ccc(C(N)=O)cc21 to recorded CC50 (system: Huh7 parental cells)
Result: 23.7

###

Hi there, I'd appreciate the recorded IC90 for every entry that follows.
# System: Huh7 cells expressing a subgenomic RNA replicon of Con1 (genotype 1b) sequence origin
# method-notes: microbe, parasite or virus in culture
# run-parameters: Hepatitis C virus, Huh-7
Answer format: number, then unit.

Look over these answered cases.
1) CN[C@H]1CC[C@@H](c2ccc(Cl)c(Cl)c2)c2ccc(NS(=O)(=O)c3ccccc3)cc21 | 3.83 µM
2) CSc1ccc(Oc2ccc(N)cc2CN(C)C)cc1C | 45.7 µM
3) CSc1ccc(Oc2ccc(S(N)(=O)=O)cc2CN2CCC[C@H]2CN2CCCC2)cc1C | 6.86 µM
4) CN[C@H]1CC[C@@H](c2ccc(Cl)c(Cl)c2)c2ccc(NS(=O)(=O)C3CC3)cc21 | 10.7 µM

Query: What does the data say about its IC90? Entry: CSc1ccc(Oc2ccc(S(N)(=O)=O)cc2CN2CCCC2)cc1C
Result: 4.74 µM

###

# method-notes: in vitro
# run-parameters: human, CC50 (uM) [SG]
readout-kind: CC50 (µM)
Numbers only, in µM.

1) CN[C@H]1CC[C@@H](c2ccc(Cl)c(Cl)c2)c2ccc(N(C)C(C)=O)cc21 | 14.6

Batch request: CC50 per item, same order as input.
1. CSc1ccc(Oc2ccc(S(N)(=O)=O)cc2CN2CCCC2)cc1C
2. COc1ccc(NS(=O)(=O)c2ccc(Oc3ccc(SC)c(C)c3)c(CN(C)C)c2)cc1
3. CSc1ccc(Oc2ccc(S(N)(=O)=O)cc2CN2CC[C@H](N(C)C)C2)cc1C
4. CN(C)[C@H]1CC[C@@H](c2ccc(Cl)c(Cl)c2)c2ccc(C(=O)NC3CCC3)cc21
5. CN[C@H]1CC[C@@H](c2ccc(Cl)c(Cl)c2)c2ccc(C(N)=O)cc21 [Sertraline A ring carboxamide]

Result:
1. 40.6
2. 8.32
3. 39.4
4. 13.4
5. 16.2

###

# System: Huh7 cells expressing a subgenomic RNA replicon of Con1 (genotype 1b) sequence origin
# method-notes: microbe, parasite or virus in culture
# run-parameters: Hepatitis C virus, Huh-7, read-out: IC50 in our hands
readout-kind: pIC50
Give bare numbers, as −log10 of the molar value.

Query: What does the data say about its pIC50? Entry: COc1cc(C(=O)NS(=O)(=O)c2ccccc2C)ccc1Cc1cn(C)c2ccc(NC(=O)OC3CCCC3)cc12 [Zafirlukast, reference compound]
Result: 4.73

###

# Tested on: Huh7 parental cells
# run-parameters: human
Structures can show the parent of a compound that is named as a salt.
readout-kind: CC50 (µM)
One number for each entry, in µM.

Look over these answered cases.
1. CN[C@H]1CC[C@@H](c2ccc(Cl)c(Cl)c2)c2ccc(C[S+](C)[O-])cc21 (stereo partly drawn) | 15.3
2. CN[C@H]1CC[C@@H](c2ccc(Cl)c(Cl)c2)c2ccc(CN)cc21 | 3.68
3. CN[C@H]1CC[C@@H](c2ccc(Cl)c(Cl)c2)c2ccccc21 [Sertraline HCL, Sertraline HCl, reference compound] | 11.3

Consider the additional compound presented here.
Query: What does the data say about its CC50? Entry: CN[C@H]1CC[C@@H](c2ccc(Cl)c(Cl)c2)c2ccc(CS(C)(=O)=O)cc21
Result: 14.2

###

Test system Huh7 cells expressing a subgenomic RNA replicon of Con1 (genotype 1b) sequence origin, TI (CC50/IC50) listed for each of the molecules.
Numbers only.

Look over these answered cases.
1) CN[C@H]1CC[C@@H](c2ccc(Cl)c(Cl)c2)c2ccc(S(=O)(=O)N(C)C)cc21 [Sertraline N,N-dimethylsulfonamide] | 1.076
2) CN[C@H]1CC[C@@H](c2ccc(Cl)c(Cl)c2)c2ccc(CNS(C)(=O)=O)cc21 | 1.761
3) CNC1CCC(c2ccc(Oc3ccccc3)cc2)c2ccccc21 (centres unmarked) | 1.987

Consider the additional molecule presented here.
Query: // map CN[C@H]1CC[C@@H](c2ccc(Cl)c(Cl)c2)c2ccc(C(=O)OC)cc21 to recorded TI (CC50/IC50) (system: Huh7 cells expressing a subgenomic RNA replicon of Con1 (genotype 1b) sequence origin)
Result: 1.248

###

# Test system: Huh7 cells expressing a subgenomic RNA replicon of Con1 (genotype 1b) sequence origin
# method-notes: microbe, parasite or virus in culture
# run-parameters: Hepatitis C virus, Huh-7, 48 h, read-out: Max Effect
Where a name gives a salt, the structure may show the parent alone.
readout-kind: Emax (%)
One number for each entry, in %.

Look over these answered cases.
1. N[C@@H]1CC[C@H](c2ccc(Cl)c(Cl)c2)c2ccccc21 | 81
2. CNC1CCC(c2ccc(Oc3ccccc3)cc2)c2ccccc21 (stereo not shown) | 99
3. CN[C@H]1CC[C@@H](c2ccc(Cl)c(Cl)c2)c2ccc(NS(C)(=O)=O)cc21 [Sertraline (Reverse) Methanesulfonamide] | 95

Batch request: Emax per item, same order as input.
1. CN[C@H]1CC[C@@H](c2ccc(Cl)c(Cl)c2)c2ccc(S(N)(=O)=O)cc21 [Sertraline Sulfonamide NH2]
2. CN[C@H]1CC[C@@H](c2ccc(Cl)c(Cl)c2)c2ccc(S(=O)(=O)N(C)C)cc21 [Sertraline N,N-dimethylsulfonamide]
3. CN[C@H]1CC[C@@H](c2ccc(Cl)c(Cl)c2)c2ccc(CO)cc21
4. CN[C@H]1CC[C@@H](c2ccc(Cl)c(Cl)c2)c2ccccc21 [Sertraline (e.g., hydrochloride), Sertraline, reference compound]

Result:
[91, 91, 97, 99]
